Where these numbers come from: PubChem BioAssay AID1159580

Experiment: chemical genetic growth profiling, strain panel (AID 1159580);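 also: tested at 20 µM; growth read once vehicle control cultures reached saturation at 30 °C; lower values mean less growth of the strain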
Details: S. cerevisiae deletion strains, growth OD, locus YLR268W, strain sec22
About 2,000 (36%) of roughly 5,500 compounds were called active. Roughly 18% stayed inconclusive and do not appear here. Rule as the data show it: active = normalized growth mostly below about 0.91 (no sharp cut-off); inconclusive = no clear call, values can overlap the other calls; inactive = mostly above about 0.92. This is one part of the list.
Write down the outcome that applies. Available outcomes: active, inactive

A selection of reference data follows.
[[record]]
molecule = "Clc1ccccc1C(c1ccccc1)(c1ccccc1)n1ccnc1"
class = "active"

[[record]]
molecule = "COC(=O)/C(C)=C\\CC12OC(C)(C)C3CC(C=C4C(=O)c5c(O)c6c(c(CCC(C)(C)Cl)c5OC431)OC1(C)CCC(=C(C)C)C6C1)C2=O (configuration not stated)"
class = "inactive"

[[record]]
molecule = "CC(=O)NCc1c(I)c(NC(C)=O)c(I)c(C(=O)O)c1I"
class = "inactive"


Okay, next one:
Hi team, can someone confirm the assay call for Fc1ccc(C(c2ccccc2)(c2ccccc2F)n2ccnc2)cc1 (configuration not stated) ? active

###

Experiment: chemical genetic growth profiling, strain panel (AID 1159580);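 also: tested at 20 µM; growth read once vehicle control cultures reached saturation at 30 °C; lower values mean less growth of the strain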
Conditions: S. cerevisiae deletion strains, growth OD, locus YMR231W, strain pep5
Screen size: about 5,500 compounds; about 2,000 (36%) were called active. About 18% were inconclusive and are not listed. Cut-off read from the data, not from the text of the source: active = normalized growth mostly below about 0.91 (no sharp cut-off); inconclusive = no clear call, values can overlap the other calls; inactive = mostly above about 0.92. The list shows a part of the results.
Mark one answer only. Choices: YES = active, NO = inactive

[[record]]
molecule = "CC1(C)CC[C@]2(C(=O)O)CC[C@]3(C)C(=CCC4[C@@]5(C)CC[C@H](O)[C@@](C)(CO)C5CC[C@]43C)C2C1 (stereo partly specified)"
class = "NO"


Called result for CC1(C)CC(O)C2(C)CCC3(C)C(=CCC4C5(C)CCC(O)C(C)(CO)C5CCC43C)C2C1 (stereo unspecified) NO

Can you handle `CCOP(=S)(OCC)Oc1nc(Cl)c(Cl)cc1Cl` next? NO

Same question for `NNC(=O)c1ccncc1` please. NO

Also CCC(C)C(=O)O[C@H]1[C@H](O)C2C(CN3CC(C)CCC3[C@@]2(C)O)C2C[C@]34O[C@]5(O)C(OC(=O)C(C)(O)CC)CC[C@@]3(C)C5C(OC(C)=O)[C@@H](OC(C)=O)C4[C@@]21O (stereo partly specified) , if possible. NO

What do you get for `Nc1ccc(S(=O)(=O)Nc2ccnn2-c2ccccc2)cc1` ? NO

Another molecule to check: COc1c(-c2coc3cc4c(cc3c2=O)CC(O)C(C)(C)O4)ccc2c1C=CC(C)(C)O2 (stereo unspecified) NO

Please give the result for `CC(=O)NCc1c(I)c(NC(C)=O)c(I)c(C(=O)O)c1I` too. NO

Thanks! And C[C@@H]1OC(O[C@H]2C(O[C@H]3CC[C@@]4(C)C(CC[C@]5(C)C4CC=C4C6CC(C)(C)CC[C@]6(C(=O)O)CC[C@]45C)[C@]3(C)CO)OC[C@H](O)[C@@H]2O)[C@H](O)[C@H](O)[C@H]1O (stereo partly specified) ? YES

Another molecule: `O=C(Nc1ccc(C(=O)O)c(O)c1)c1ccccc1` NO

Also CC(=O)O[C@H]1CC[C@@]2(C)C(CC[C@]3(C)C2CC=C2C4CC(C)(C)CC[C@]4(C)CC[C@]23C)C1(C)C (stereo partly specified) , if possible. NO

One more molecule: COC(=O)C[C@H]1C(C)(C)C(=O)[C@@H]2CC3C4=CC(=O)O[C@@H](c5ccoc5)[C@]4(C)CCC3[C@@]1(C)C2=O (stereo partly specified) NO
